target: T1, human MSLN-R2-his protein (human, UniProt Q13421 391-486); experiment: ELISA on coated antigen, no antibody (blank, column 'none')
T1 construct: it is put last here; also called human MSLN-R2 protein; hMSLN-R2-his; not shown: His tag
T1 sequence (Q13421 other isoform, or with tags, fused parts or gaps): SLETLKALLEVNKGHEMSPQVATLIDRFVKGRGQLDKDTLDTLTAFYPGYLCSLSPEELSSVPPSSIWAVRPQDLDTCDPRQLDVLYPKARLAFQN
Hi there, I'd appreciate the recorded OD450 for every entry that follows.
Answers are plain numbers, in OD.

BINDER | QUANTITY UNIT | OD450
S009-F7.66.12 (antibody, human IgG1, kappa, V domains shown, Human-murine chimeric antibody, human IgG1 heavy and kappa light constant regions) VH: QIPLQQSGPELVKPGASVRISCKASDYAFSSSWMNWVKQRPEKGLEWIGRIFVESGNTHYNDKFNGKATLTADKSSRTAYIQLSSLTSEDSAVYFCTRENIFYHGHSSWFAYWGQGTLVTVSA VL: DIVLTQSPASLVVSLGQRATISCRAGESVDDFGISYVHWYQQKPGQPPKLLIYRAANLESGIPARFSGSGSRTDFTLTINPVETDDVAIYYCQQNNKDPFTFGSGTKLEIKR | OD | 0.07

Switching to the query record.
Input S009-F7.26.15 (antibody, human IgG1, kappa, V domains shown, Human-murine chimeric antibody, human IgG1 heavy and kappa light constant regions) VH: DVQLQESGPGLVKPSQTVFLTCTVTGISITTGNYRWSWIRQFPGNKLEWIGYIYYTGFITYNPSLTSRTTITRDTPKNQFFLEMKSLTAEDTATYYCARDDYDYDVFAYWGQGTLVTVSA VL: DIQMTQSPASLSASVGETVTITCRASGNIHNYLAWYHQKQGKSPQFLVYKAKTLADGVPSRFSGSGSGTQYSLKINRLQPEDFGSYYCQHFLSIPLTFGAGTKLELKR . Output OD450: 0.06

Reference source for all entries: patent US20250250357A1
